Tested on: parental wild-type Ba/F3 cells
Assay: Ba/F3 (WT) cell proliferation assay (Alamar Blue)
Type: cell-based
Conditions: Mus musculus, BaF3; % at 10.0 μM, 72 hours; read-out: BaF3 WT prolif
Output Y for inhibition at 10 µM not less than 30%; output N otherwise.

Before answering, review these 10 worked examples.
compound	system	labelClass
O=C(NCC(F)(F)F)Nc1cccc(-c2cnc3cc(/C(=N/OCCO)C4CC4)ccn23)c1 [Compound 1-32]	parental wild-type Ba/F3 cells	Y
CCC(=NO)c1ccn2c(-c3cccc(NC(=O)NCC(F)(F)F)c3)cnc2c1 [Compound 1-26]	parental wild-type Ba/F3 cells	Y
CON=C(CC1CC1)c1ccn2c(-c3cccc(NC(=O)NCC(F)(F)F)c3)cnc2c1 [Compound 1-29]	parental wild-type Ba/F3 cells	N
O=C(NCC(F)(F)F)Nc1cccc(-c2cnc3cc(C=NOCC(O)CN4CCC(O)CC4)ccn23)c1 (stereo not drawn) [Compound 1-43]	parental wild-type Ba/F3 cells	N
O=C(NCC(F)(F)F)Nc1cccc(-c2cnc3cc(C(=NO)C4CC4)ccn23)c1 [Compound 1-50]	parental wild-type Ba/F3 cells	Y
O=C(NCC(F)(F)F)Nc1cccc(-c2cnc3cc(C(CC4CC4)=NO)ccn23)c1 [Compound 1-30]	parental wild-type Ba/F3 cells	N
CS(=O)(=O)CCNCCON=Cc1ccn2c(-c3cccc(NC(=O)NCC(F)(F)F)c3)cnc2c1 [Compound 1-52]	parental wild-type Ba/F3 cells	N
CN(CCON=Cc1ccn2c(-c3cccc(NC(=O)NCC(F)(F)F)c3)cnc2c1)CCS(C)(=O)=O [Compound 1-42]	parental wild-type Ba/F3 cells	N
C/C(=N\OCCCO)c1ccn2c(-c3cccc(NC(=O)NCC(F)(F)F)c3)cnc2c1 [Compound 1-47]	parental wild-type Ba/F3 cells	Y
CN1CCN(C(=O)CCON=Cc2ccn3c(-c4cccc(NC(=O)NCC(F)(F)F)c4)cnc3c2)CC1 [Compound 1-51]	parental wild-type Ba/F3 cells	N

Problem: Check the entry Nc1nc(CON=Cc2ccn3c(-c4cccc(NC(=O)NCC(F)(F)F)c4)cnc3c2)cs1 [Compound 1-16] : does inhibition at 10 µM equal or exceed 30%?
Result: N

Problem: Also O=C(NCC(F)(F)F)Nc1cccc(-c2cnc3cc(C=NOCCCNC4CCOCC4)ccn23)c1 [Compound 1-37] ?
Result: Y

###

Molecular target: FGFR3 (Homo sapiens)
Construct: purchased Upstate
Sequence (P22607 23-806): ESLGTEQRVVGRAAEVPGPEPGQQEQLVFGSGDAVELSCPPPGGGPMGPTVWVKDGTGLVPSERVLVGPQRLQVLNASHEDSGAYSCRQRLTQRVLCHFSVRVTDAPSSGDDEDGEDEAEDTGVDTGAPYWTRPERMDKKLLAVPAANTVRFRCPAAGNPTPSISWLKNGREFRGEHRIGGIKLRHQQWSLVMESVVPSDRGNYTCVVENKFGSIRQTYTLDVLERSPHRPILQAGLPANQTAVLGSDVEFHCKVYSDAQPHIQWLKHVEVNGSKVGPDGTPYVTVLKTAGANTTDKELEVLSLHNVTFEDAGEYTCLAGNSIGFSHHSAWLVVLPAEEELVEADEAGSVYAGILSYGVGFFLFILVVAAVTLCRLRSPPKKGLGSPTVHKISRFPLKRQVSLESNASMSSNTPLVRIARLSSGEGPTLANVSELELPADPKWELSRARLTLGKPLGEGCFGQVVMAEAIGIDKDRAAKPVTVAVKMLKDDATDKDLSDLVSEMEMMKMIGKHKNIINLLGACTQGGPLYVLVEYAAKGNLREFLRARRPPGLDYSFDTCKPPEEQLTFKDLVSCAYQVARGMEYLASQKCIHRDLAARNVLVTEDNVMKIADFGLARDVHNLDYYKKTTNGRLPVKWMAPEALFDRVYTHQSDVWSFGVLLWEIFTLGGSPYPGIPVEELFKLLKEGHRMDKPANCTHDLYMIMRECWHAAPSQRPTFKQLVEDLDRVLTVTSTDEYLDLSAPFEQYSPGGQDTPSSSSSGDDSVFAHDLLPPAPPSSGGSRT
Test: FGFR3 in vitro kinase inhibitory activity assay (TRF)
Assay type: biochemical
Conditions: 8 μM ATP, 3 hours; read-out: FGFR3 IC50(μM) or % I
Measured IC50 accompanies every entry in the list below.
# value in µM; strip the unit string

Some solved entries appear below for comparison.
molecule	IC50 / µM
CON=C(c1ccn2c(-c3cccc(NC(=O)NCC(F)(F)F)c3)cnc2c1)C1CCC1 [Compound 1-27]	0.08
N=C(N)Nc1nc(CON=Cc2ccn3c(-c4cccc(NC(=O)NCC(F)(F)F)c4)cnc3c2)cs1 [Compound 1-19]	0.023
O=C(NCC(F)(F)F)Nc1cccc(-c2cnc3cc(C=NOCCCNC4CCOCC4)ccn23)c1 [Compound 1-37]	0.028
O=C(NCC(F)(F)F)Nc1cccc(-c2cnc3cc(C=NOCC4CC4)ccn23)c1 [Compound 1-11]	0.027
O=C(NCC(F)(F)F)Nc1cccc(-c2cnc3cc(C=NOCCCN4CCN(CCO)CC4)ccn23)c1 [Compound 1-39]	0.025
O=C(NCC(F)(F)F)Nc1cccc(-c2cnc3cc(C(=NO)C4CCC4)ccn23)c1 [Compound 1-28]	0.022
COCCNCCON=Cc1ccn2c(-c3cccc(NC(=O)NCC(F)(F)F)c3)cnc2c1 [Compound 1-53]	0.035
CN1CCN(C(=O)CCON=Cc2ccn3c(-c4cccc(NC(=O)NCC(F)(F)F)c4)cnc3c2)CC1 [Compound 1-51]	0.033

Problem: Fill in the blank: the reported IC50 of O=C(NCC(F)(F)F)Nc1cccc(-c2cnc3cc(C=NOCc4ccc(Cl)s4)ccn23)c1 [Compound 1-8] is ____.
Result: 0.215

Problem: Next molecule: O=C(NCC(F)(F)F)Nc1cccc(-c2cnc3cc(C=NOCC(O)CNC4CC4)ccn23)c1 (stereo not shown) [Compound 1-61]
Result: 0.029

Problem: Follow-up item: C/C(=N\OCCO)c1ccn2c(-c3cccc(NC(=O)NCC(F)(F)F)c3)cnc2c1 [Compound 1-62]
Result: 0.0035

Problem: Also check Cc1noc(C)c1CON=Cc1ccn2c(-c3cccc(NC(=O)NCC(F)(F)F)c3)cnc2c1 [Compound 1-12]
Result: 0.018

Problem: Check O=C(NCC(F)(F)F)Nc1cccc(-c2cnc3cc(C=NOCCC4CCN(CCO)CC4)ccn23)c1 [Compound 1-49] too.
Result: 0.019

###

Target: Ba/F3-TEL-FGFR3 cells (Homo sapiens)
Construct: fused on or other part: P41212 (Transcription factor ETV6)
Sequence (P22607 whole entry, change not shown, the tested form may be a part): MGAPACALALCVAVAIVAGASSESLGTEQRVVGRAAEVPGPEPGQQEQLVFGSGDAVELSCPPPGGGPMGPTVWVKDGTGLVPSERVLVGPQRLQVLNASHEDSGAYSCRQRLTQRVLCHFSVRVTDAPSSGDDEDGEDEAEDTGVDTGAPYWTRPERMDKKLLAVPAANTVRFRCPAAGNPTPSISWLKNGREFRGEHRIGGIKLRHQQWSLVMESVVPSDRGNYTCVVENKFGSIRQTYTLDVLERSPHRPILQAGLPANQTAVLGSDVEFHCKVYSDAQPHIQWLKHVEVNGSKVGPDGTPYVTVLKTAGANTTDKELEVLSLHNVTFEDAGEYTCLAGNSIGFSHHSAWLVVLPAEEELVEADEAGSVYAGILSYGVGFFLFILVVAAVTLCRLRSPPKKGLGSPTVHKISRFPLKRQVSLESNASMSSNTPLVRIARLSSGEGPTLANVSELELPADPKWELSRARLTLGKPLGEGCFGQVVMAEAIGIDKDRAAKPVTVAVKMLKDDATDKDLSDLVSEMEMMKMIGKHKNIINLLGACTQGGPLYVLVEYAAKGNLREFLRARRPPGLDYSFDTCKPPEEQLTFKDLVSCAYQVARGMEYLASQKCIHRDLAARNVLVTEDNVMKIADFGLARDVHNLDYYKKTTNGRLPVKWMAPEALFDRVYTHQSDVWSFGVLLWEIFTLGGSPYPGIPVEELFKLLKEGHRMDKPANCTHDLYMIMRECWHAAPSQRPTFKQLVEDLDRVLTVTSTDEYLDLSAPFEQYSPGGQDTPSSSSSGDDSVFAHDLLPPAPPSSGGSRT
Assay: Ba/F3-TEL-FGFR3 cell proliferation assay (Alamar Blue)
Format: cell-based
Settings: 72 hours; read-out: BaF3-TEL-FGFR3 prolif
measuredAttribute: GI50
In your response, the unit should come after the numeric value.

Before answering, review these 4 worked examples.
CN1CCC(ON=Cc2ccn3c(-c4cccc(NC(=O)NCC(F)(F)F)c4)cnc3c2)CC1 140 nM
COCCON=Cc1ccn2c(-c3cccc(NC(=O)NCC(F)(F)F)c3)cnc2c1 210 nM
O=C(NCC(F)(F)F)Nc1cccc(-c2cnc3cc(C(=NO)C4CCC4)ccn23)c1 570 nM
O=C(NCC(F)(F)F)Nc1cccc(-c2cnc3cc(C=NOCc4ccco4)ccn23)c1 43 nM

Problem: Which GI50 is reported for this compound? CC(C)Oc1cc(NC(=O)NCC(F)(F)F)cc(-c2cnc3cc(/C(=N\OCCO)C4CC4)ccn23)c1
Result: 500 nM

Problem: Now the compound O=C(NCC(F)(F)F)Nc1cccc(-c2cnc3cc(C=NOCCCN4CCN(CCO)CC4)ccn23)c1
Result: 1300 nM

###

Target: Ba/F3-TEL-FGFR3 cells (Homo sapiens)
Construct: fused on or other part: P41212 (Transcription factor ETV6)
Assay: Ba/F3-TEL-FGFR3 cell proliferation assay (Alamar Blue)
Format: cell-based
Settings: 72 hours; read-out: BaF3-TEL-FGFR3 prolif
measuredAttribute: GI50 (nM)
Write the answer as a number in nM, unit excluded.

Record excerpt, results attached:
O=C(NCC(F)(F)F)Nc1cccc(-c2cnc3cc(C=NOCCC4CCN(CCO)CC4)ccn23)c1 1400
CS(=O)(=O)CCNCCON=Cc1ccn2c(-c3cccc(NC(=O)NCC(F)(F)F)c3)cnc2c1 4900
CC(C)Oc1cc(NC(=O)NCC(F)(F)F)cc(-c2cnc3cc(/C(=N/O)C4CC4)ccn23)c1 470

# input for lookup
Problem: GI50 lookup needed for Cc1noc(C)c1CON=Cc1ccn2c(-c3cccc(NC(=O)NCC(F)(F)F)c3)cnc2c1 , thanks.
Result: 240
